- Tested on: PBMC
- EXPERIMENTAL DETAILS: Induction of IL6 production in human PBMC at 10 ug/ml after 48 hrs by ELISA
- Format: functional
The label is Y for Activity below 100 pg/mL and N for Activity equal to or exceeding 100 pg/mL.

Consider the worked cases shown below.
COc1ccc([C@H]2Oc3cc(O)cc(O)c3C[C@H]2O)cc1OC ... N
CC(=O)OC[C@]12[C@H](OC(C)=O)[C@H](OC(C)=O)[C@@H]3[C@@H](OC(C)=O)[C@@]14O[C@@]3(C)COC(=O)c1cccnc1C(C)C(C)C(=O)O[C@@H]([C@H](OC(C)=O)[C@@H]2OC(=O)c1ccccc1)[C@]4(C)O (stereo partly specified) [MAYTEINE] ... N
C[C@@H]1[C@H]2C3=CC[C@@H]4[C@@]5(C)CC[C@@H](O)C(C)(C)[C@@H]5CC[C@@]4(C)[C@]3(C)CC[C@@]2(C)[C@@H](O)C[C@H]1C(=O)O [TRIPTOCALLIC ACID A] ... Y
CC1(C)[C@@H](O)CC[C@]2(C)[C@H]3CC=C4[C@@H]5C[C@](C)(C(=O)O)C[C@H](O)[C@]5(C)CC[C@@]4(C)[C@]3(C)CC[C@@H]12 [MAYTENFOLIC ACID] ... Y

Is it true that Activity reported for CC1(C)[C@H](O)CC[C@]2(C)[C@H]3CC=C4[C@@H]5C[C@@]6(C)C[C@H](OC6=O)[C@]5(C)CC[C@@]4(C)[C@]3(C)CC[C@@H]12 [ABRUSLACTONE A] is less than 100 pg/mL? N

Is it true that Activity reported for CC1(C)[C@H](O)CC[C@]2(C)[C@H]3CC=C4[C@@H]5C[C@](C)(C(=O)O)C[C@H](O)[C@]5(C)CC[C@@]4(C)[C@]3(C)CC[C@@H]12 [TRIPTOCALLIC ACID D] is less than 100 pg/mL? Y

Is it true that Activity reported for `CC1(C)[C@H](O)CC[C@]2(C)[C@H]3CC=C4[C@@H]5C[C@](C)(C(=O)O)C[C@@H](O)[C@]5(C)CC[C@@]4(C)[C@]3(C)CC[C@@H]12` is less than 100 pg/mL? Y

* * *

Exercise: state measured Activity for each of the molecules provided.
- Tested on: PBMC
- EXPERIMENTAL DETAILS: Induction of IL12 production in human PBMC at 1 ug/ml after 48 hrs by ELISA
- Type: functional

CC(=O)OC[C@]12[C@H](OC(C)=O)[C@H](OC(C)=O)[C@@H]3[C@@H](OC(C)=O)[C@@]14O[C@@]3(C)COC(=O)c1cccnc1C(C)C(C)C(=O)O[C@@H]([C@H](OC(C)=O)[C@@H]2OC(=O)c1ccccc1)[C@]4(C)O (stereo partly specified) ... 14.3 pg/mL
C[C@@H]1[C@H]2C3=CC[C@@H]4[C@@]5(C)CC[C@@H](O)C(C)(C)[C@@H]5CC[C@@]4(C)[C@]3(C)CC[C@@]2(C)[C@@H](O)C[C@H]1C(=O)O ... <7.8 pg/mL
CC1(C)[C@@H](O)CC[C@]2(C)[C@H]3CC=C4[C@H]5C[C@](C)(C(=O)O)C[C@@H](O)[C@]5(C)CC[C@@]4(C)[C@]3(C)CC[C@@H]12 ... <7.8 pg/mL
CC1(C)[C@H](O)CC[C@]2(C)[C@H]3CC=C4[C@@H]5C[C@](C)(C(=O)O)C[C@H](O)[C@]5(C)CC[C@@]4(C)[C@]3(C)CC[C@@H]12 ... <7.8 pg/mL
COc1ccc([C@H]2Oc3cc(O)cc(O)c3C[C@H]2O)cc1OC ... <7.8 pg/mL
CC1(C)[C@@H](O)CC[C@]2(C)[C@H]3CC=C4[C@@H]5C[C@@]6(C)C[C@H](OC6=O)[C@]5(C)CC[C@@]4(C)[C@]3(C)CC[C@@H]12 [3-EPIABRUSLACTONE A] ... <7.8 pg/mL
C[C@@H]1[C@@]23CC[C@H]4[C@@](C)(CC[C@@]5(C)[C@@H]6C[C@](C)(C(=O)O)CC[C@]6(C)CC[C@]45C)[C@@H]2CC[C@@]1(O)OC3 ... 21.6 pg/mL
CC1(C)C(=O)CC[C@]2(C)[C@H]3CC=C4[C@@H]5C[C@]6(C)C[C@@H](OC6=O)[C@]5(C)CC[C@@]4(C)[C@]3(C)CC[C@@H]12 [WILFORLIDE B] ... <7.8 pg/mL

For each entry beneath this line, provide reported Activity.
1. CC1(C)[C@H](O)CC[C@]2(C)[C@H]3CC=C4[C@@H]5C[C@@]6(C)C[C@H](OC6=O)[C@]5(C)CC[C@@]4(C)[C@]3(C)CC[C@@H]12
2. CC1(C)[C@@H](O)CC[C@]2(C)[C@H]3CC=C4[C@H]5C[C@](C)(C(=O)O)CC[C@]5(C)CC[C@@]4(C)[C@]3(C)CC[C@@H]12 [EPIKATONIC ACID]
3. CC(C)c1cc2c(cc1O)[C@@]1(C)CCC[C@](C)(C(=O)O)[C@@H]1CC2

1: <7.8 pg/mL; 2: <7.8 pg/mL; 3: <7.8 pg/mL

* * *

- Tested on: PBMC
- EXPERIMENTAL DETAILS: Induction of IL6 production in human PBMC at 10 ug/ml after 48 hrs by ELISA
- Assay type: functional
Note to self: class = bucket of Activity, per range A: < 200 pg/mL; range B: ≥ 200 pg/mL and < 600 pg/mL; range C: ≥ 600 pg/mL

CC1(C)[C@@H](O)CC[C@]2(C)[C@H]3CC=C4[C@H]5C[C@](C)(C(=O)O)C[C@@H](O)[C@]5(C)CC[C@@]4(C)[C@]3(C)CC[C@@H]12 ... range B

Assign a bin to `C[C@H]1C(=O)CC[C@@H]2[C@]1(C)CC[C@H]1[C@@]2(C)CC[C@@]2(C)[C@@H]3CC(C)(C)CC[C@]3(CO)CC[C@]12C` range C

Assign a bin to CC1(C)[C@@H](O)CC[C@]2(C)[C@H]3CC=C4[C@@H]5C[C@@]6(C)C[C@H](OC6=O)[C@]5(C)CC[C@@]4(C)[C@]3(C)CC[C@@H]12 [3-EPIABRUSLACTONE A] range B

Assign a bin to `COc1c(O)cc([C@H]2Oc3c(c(O)cc(O)c3[C@H]3c4c(O)cc(O)cc4O[C@H](c4ccc(O)cc4)[C@@H]3O)C[C@H]2O)cc1O` range A

Assign a bin to `COc1ccc(C(=O)O[C@@H]2C[C@](C)(O)[C@H]3[C@H](O[C@@H]4O[C@H](CO)[C@@H](O)[C@H](O)[C@H]4O)OC=C[C@H]32)cc1OC` range A

Assign a bin to CC(=O)OC[C@]12[C@H](OC(=O)c3ccccc3)[C@H](OC(C)=O)[C@@H]3[C@@H](OC(C)=O)[C@@]14O[C@@]3(C)COC(=O)c1cccnc1C(C)C(C)C(=O)O[C@@H]([C@H](OC(C)=O)[C@@H]2OC(=O)c1ccccc1)[C@]4(C)O (stereo partly specified) range A

Assign a bin to `COc1c(O)cc([C@H]2Oc3cc(O)cc(O)c3C[C@H]2O)cc1O` range C

Assign a bin to C[C@@H]1O[C@@H](O[C@@H]2[C@@H](O)[C@H](OCCc3ccc(O)c(O)c3)O[C@H](COC(=O)/C=C/c3ccc(O)c(O)c3)[C@H]2O)[C@H](O)[C@H](O)[C@H]1O [ISOACTEOSIDE] range A

Assign a bin to `COc1cc(C(=O)O[C@@H]2C[C@](C)(O)[C@H]3[C@H](O[C@@H]4O[C@H](CO)[C@@H](O)[C@H](O)[C@H]4O)OC=C[C@H]32)ccc1O` range A

Assign a bin to `COc1c(O)cc([C@H]2Oc3cc(O)cc(O)c3C(=O)[C@H]2O)cc1O` range B

* * *

- System: PBMC
- EXPERIMENTAL DETAILS: Induction of IL10 production in human PBMC at 1 ug/ml after 48 hrs by ELISA
- Type: functional, cell-based
Active and inactive are the calls of the source. The calls are words filed in the database; no cut-off is given here.
READOUT LABEL: Activity

C[C@@H]1O[C@@H](O[C@@H]2[C@@H](O)[C@H](OCCc3ccc(O)c(O)c3)O[C@H](COC(=O)/C=C/c3ccc(O)c(O)c3)[C@H]2O)[C@H](O)[C@H](O)[C@H]1O [ISOACTEOSIDE] ... inactive
CC(=O)OC[C@]12[C@H](OC(C)=O)[C@H](OC(C)=O)[C@@H]3[C@@H](OC(=O)c4ccccc4)[C@@]14O[C@@]3(C)COC(=O)c1cccnc1C(C)C(C)C(=O)O[C@@H]([C@H](OC(C)=O)[C@@H]2OC(=O)c1ccccc1)[C@]4(C)O (some centres not stated) ... inactive
